# study.system: protein tyrosine phosphatase nonreceptor type 22 (PTPN22) (Homo sapiens, UniProt Q9Y2R2)
# Construct: catalytic domain, amino acids 1 to 303
# assay.name: pNPP phosphatase assay with recombinant enzyme; Lineweaver-Burk and Dixon plots (Ki […])
# Type: biochemical
reported.metric: pIC50
Interpret pIC50 as the negative base-10 log of the concentration measured in mol/L.

INPUT: Param item = `O=c1c(O)c(-c2ccc(O)c(O)c2)oc2cc(O)cc(O)c12` ; retrieve measured pIC50.
OUTPUT: 4.53

* * *

Reported inhibition at 50 µM by item:
# study.system: protein tyrosine phosphatase nonreceptor type 22 (PTPN22) (Homo sapiens, UniProt Q9Y2R2)
# Construct: catalytic domain, amino acids 1 to 303
# Sequence (Q9Y2R2 1-303): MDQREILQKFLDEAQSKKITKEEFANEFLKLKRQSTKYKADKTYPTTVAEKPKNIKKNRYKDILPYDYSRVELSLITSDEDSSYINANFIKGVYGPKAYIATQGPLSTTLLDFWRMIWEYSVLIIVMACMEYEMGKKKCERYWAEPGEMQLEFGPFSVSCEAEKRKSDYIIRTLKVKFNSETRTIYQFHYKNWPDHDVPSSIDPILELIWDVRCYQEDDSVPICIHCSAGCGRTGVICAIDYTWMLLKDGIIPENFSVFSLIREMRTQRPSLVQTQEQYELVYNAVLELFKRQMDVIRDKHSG
# assay.name: pNPP phosphatase assay, single concentration screen at […]
# Type: biochemical
# setup.conditions: read-out: % inhibition at 50 μM
Response body: numeric value in %, unit text excluded.

- CO[C@H]1C[C@H](O[C@@H]2/C(C)=C/C[C@@H]3C[C@@H](C[C@]4(CC[C@H](C)[C@@H](C5CCCCC5)O4)O3)OC(=O)[C@@H]3C=C(C)/C(=N/O)[C@H]4OC/C(=C\C=C\[C@@H]2C)[C@]43O)O[C@@H](C)[C@@H]1O: 54
- CO[C@H]1C[C@H](O[C@H]2[C@H](C)O[C@@H](O[C@@H]3/C(C)=C/C[C@@H]4C[C@@H](C[C@]5(C=C[C@H](C)[C@@H](C6CCCCC6)O5)O4)OC(=O)[C@@H]4C=C(C)[C@@H](O)[C@H]5OC/C(=C\C=C\[C@@H]3C)[C@]54O)C[C@@H]2OC)O[C@@H](C)[C@@H]1O: 50

INPUT: What value of inhibition at 50 µM has been reported for the following molecule? `O=C1C=C(O)C(=O)c2ccccc21`
OUTPUT: 62

INPUT: Data request, read-out inhibition at 50 µM, for `O=C1C=CC(=O)c2c(O)cccc21`
OUTPUT: 61
